- Test target: Signal transducer and activator of transcription 3 (Homo sapiens) (UniProt P40763)
- Sequence (P40763 whole entry): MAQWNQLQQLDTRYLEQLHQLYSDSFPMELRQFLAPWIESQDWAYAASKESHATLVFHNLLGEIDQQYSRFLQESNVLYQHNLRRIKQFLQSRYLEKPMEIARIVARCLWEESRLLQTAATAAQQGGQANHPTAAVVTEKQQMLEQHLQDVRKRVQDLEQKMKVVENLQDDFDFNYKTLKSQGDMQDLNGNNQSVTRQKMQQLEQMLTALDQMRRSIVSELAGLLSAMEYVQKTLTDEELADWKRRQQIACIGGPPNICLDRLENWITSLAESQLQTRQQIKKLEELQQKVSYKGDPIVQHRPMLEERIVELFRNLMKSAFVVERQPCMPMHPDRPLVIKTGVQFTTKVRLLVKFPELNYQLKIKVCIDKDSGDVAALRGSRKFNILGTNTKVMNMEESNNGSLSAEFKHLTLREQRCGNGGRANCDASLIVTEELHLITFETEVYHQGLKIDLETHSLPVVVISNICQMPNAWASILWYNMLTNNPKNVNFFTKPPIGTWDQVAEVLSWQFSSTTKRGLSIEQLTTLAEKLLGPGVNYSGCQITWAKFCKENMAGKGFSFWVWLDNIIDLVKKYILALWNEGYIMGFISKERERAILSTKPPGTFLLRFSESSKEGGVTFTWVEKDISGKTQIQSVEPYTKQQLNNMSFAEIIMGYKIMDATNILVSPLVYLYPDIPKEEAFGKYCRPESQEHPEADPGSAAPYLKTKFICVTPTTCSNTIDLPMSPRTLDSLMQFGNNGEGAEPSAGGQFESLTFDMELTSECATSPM
- Test name: Inhibition of STAT3 in human HCT116 cells at 50 uM after 24 hrs by firefly and renilla dual luciferase assay
- Format: cell-based
- Conditions: HCT-116
inhibition below 10% gives criterion not met; inhibition at or above it gives criterion met.

Answered cases to consult:
O=C1CC2CC(C(=O)Nc3ccc(C(F)(F)F)cc3)c3ccccc3C2=NN1 (single isomer, unassigned; (-)-2b) | criterion met
O=C1CC2CC(C(=O)Nc3ccc(C(F)(F)F)cc3)c3ccccc3C2=NN1 (single isomer, unassigned; (+)-2a) | criterion met
O=C(Nc1ccc(C(F)(F)F)cc1)C1Cc2cc(=O)[nH]nc2-c2ccccc21 (single isomer, unassigned; (-)) | criterion met
O=C(Nc1ccc(C(F)(F)F)cc1)C1Cc2cc(=O)[nH]nc2-c2ccccc21 (racemic) | criterion not met
O=C1CC2CC(C(=O)Nc3ccc(C(F)(F)F)cc3)c3ccccc3C2=NN1 (racemic; 2) | criterion not met
O=C1CC2CC(C(=O)Nc3ccc(C(F)(F)F)cc3)c3ccccc3C2=NN1 (single isomer, unassigned; (-)-1) | criterion met

Would you kindly look at the next entry?
input: Check if inhibition >= 10% (inclusive). Item: O=C1CC2CC(C(=O)Nc3ccc(C(F)(F)F)cc3)c3ccccc3C2=NN1 (racemic; 1)
output: criterion not met

----------
- Test target: Signal transducer and activator of transcription 3 (Homo sapiens)
- Test name: Inhibition of STAT3 in human HCT116 cells at 10 uM after 24 hrs by firefly and renilla dual luciferase assay
- Format: cell-based
- Conditions: HCT-116
Measure name: inhibition (%)
Respond with the bare value in %.

O=C(Nc1ccc(C(F)(F)F)cc1)C1Cc2cc(=O)[nH]nc2-c2ccccc21 (stereo in doubt; (+)-3a) | -2

input: Answer with inhibition of O=C1CC2CC(C(=O)Nc3ccc(C(F)(F)F)cc3)c3ccccc3C2=NN1 (single isomer, unassigned; (+)-2a) measured for Signal transducer and activator of transcription 3 (Homo sapiens).
output: -8

input: Answer with inhibition of O=C1CC2CC(C(=O)Nc3ccc(C(F)(F)F)cc3)c3ccccc3C2=NN1 (racemic; 2) measured for Signal transducer and activator of transcription 3 (Homo sapiens).
output: -6

input: Answer with inhibition of O=C1CC2CC(C(=O)Nc3ccc(C(F)(F)F)cc3)c3ccccc3C2=NN1 (racemic; 1) measured for Signal transducer and activator of transcription 3 (Homo sapiens).
output: -3

input: Answer with inhibition of O=C1CC2CC(C(=O)Nc3ccc(C(F)(F)F)cc3)c3ccccc3C2=NN1 (single isomer, unassigned; (-)-2b) measured for Signal transducer and activator of transcription 3 (Homo sapiens).
output: 1

----------
- Test target: Signal transducer and activator of transcription 3 (Homo sapiens)
- Test name: Inhibition of STAT3 in human HCT116 cells at 50 uM after 24 hrs by firefly and renilla dual luciferase assay
- Assay type: cell-based
- Conditions: HCT-116
Measure name: inhibition (%)
Respond with the bare value in %.

Known inhibition results, listed for orientation:
O=C(Nc1ccc(C(F)(F)F)cc1)C1Cc2cc(=O)[nH]nc2-c2ccccc21 (stereo in doubt; (+)-3a) | 24
C[C@H]1COC2=C1C(=O)C(=O)c1c2ccc2c1CCCC2(C)C | 85

input: Please give the documented inhibition of O=C1CC2CC(C(=O)Nc3ccc(C(F)(F)F)cc3)c3ccccc3C2=NN1 (single isomer, unassigned; (+)-1)
output: 35
